assay: osmotic lysis modulators in infected erythrocytes, primary screen, PSAC antagonist project, cell-based, P. falciparum Indochina, OD700, 3 h (AID 1156); conditions: higher = more signal, called active from +8 up or from −8 down
z-score vs 1: at or above is satisfied, below is not satisfied.

- molecule: "C=CCNC(=O)[C@H]1[C@@H]2C(=O)O[C@@H](c3ccccc3)[C@@H](c3ccccc3)N2[C@@H](c2ccc(OCCO)cc2)[C@]12C(=O)N(C(=O)OCCOC)c1ccccc12"
  assigned-category: "satisfied"
- molecule: "CCOC(=O)C1=CCC(c2ccccc2)N(S(=O)(=O)CC[Si](C)(C)C)C1 (configuration not stated)"
  assigned-category: "not satisfied"
- molecule: "COCCOC(=O)N1C(=O)[C@@]2(c3ccccc31)[C@H](c1ccc(O)cc1)N1[C@H](c3ccccc3)[C@H](c3ccccc3)OC(=O)[C@H]1[C@@H]2C(=O)NC[C@H](O)c1ccccc1"
  assigned-category: "not satisfied"
- molecule: "[N-]=[N+]=NCc1ccccc1C[C@]1(C(=O)N2CCOCC2)N=C(c2ccc(OCCCO)cc2)O[C@H]1c1ccccc1N=[N+]=[N-]"
  assigned-category: "satisfied"
- molecule: "CCCCc1cn(C[C@H](Cc2ccccc2)NC(=O)N[C@H](CO)CCc2oc(C(C)=O)c(C(=O)OC)c2C(=O)OC)nn1"
  assigned-category: "satisfied"

Textbook exercise: given the entry `C=C(COC)/C(=C/C[C@@H](OC(C)=O)c1ccc(CO)o1)c1cnc2ccccc2c1` , state whether its z-score is greater than or equal to 1. satisfied

Textbook exercise: given the entry `CN(C)C(=O)[C@@]1(Cc2ccccc2CN=[N+]=[N-])N=C(c2ccc(OCCCO)cc2)O[C@H]1c1ccccc1` , state whether its z-score is greater than or equal to 1. satisfied

* * *

assay: MM1S myeloma cell viability, profiling panel, resazurin fluorescence, basal, 24 h, PK04 Diversity Set (AID 1174); details: higher = more signal, called active from +8 up or from −8 down;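 also: MM1S multiple myeloma cell line; test concentration not given here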
assay-metric: z-score
Please reply with the value in numeric form only.

Reference set, count: 4
- cpd-smiles: "CCOC(=O)C[C@H]1[C@H](OC(=O)Cc2ccc3c(c2)OCO3)[C@@H](NC(=O)c2ccc3ccccc3c2)c2cc(OCCCO)ccc2N1C(=O)c1ccccc1"
  z-score: -1.09
- cpd-smiles: "COc1cc2c(cc1OC)CN(C(=O)[C@H]1[C@@H]3C(=O)O[C@@H](c4ccccc4)[C@@H](c4ccccc4)N3[C@@H](c3ccc(O)cc3)[C@]13C(=O)Nc1ccc(C#CC4=CCCCC4)cc13)CC2"
  z-score: -0.16
- cpd-smiles: "O=C1c2ccccc2[C@@]2(Cc3ccccc3N(CC(F)(F)F)C2=O)[C@H](c2ccc(CO)cc2)N1Cc1ccccc1Cl"
  z-score: 0.192
- cpd-smiles: "COC(=O)[C@@]1(Cc2ccc(OC)cc2)[C@H]2c3cc(C(=O)N(C)C)n(Cc4cccc5ccccc45)c3C[C@H]2CN1C(=O)c1ccccc1"
  z-score: -2.01

State the recorded z-score for this entry: `C=C/C=C/[C@H]1C(=C)CN([C@@H](Cc2ccccc2)C(=O)OC)[C@@H]1[C@H](O)Cc1ccccc1` 0.883

State the recorded z-score for this entry: `C=CCOC(=O)[C@@H]1[C@H]2C(=O)O[C@H](c3ccccc3)[C@H](c3ccccc3)N2[C@H](c2ccc(OCCOC(=O)[C@@H]3C[C@@H]4C(=O)N5CCC[C@H]5C(=O)N4[C@@H]3c3ccc(O)cc3)cc2)[C@@]12C(=O)Nc1ccc(I)cc12` -0.446

* * *

molecular target: Calmodulin-1 (Homo sapiens); test: calcium-bound CALM1 binders on microarrays, profiling panel, artefact control for SMM control-protein annotation, biochemical, small-molecule microarray, Cy5-labelled CALM1, plus calcium (AID 1112); conditions: Cy5-CALM1 binding fluorescence, higher = more signal;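 also: score merges spot fluorescence with signal to noise from triplicate slides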
composite z-score vs -0.08: at or above is yes (1), below is no (0).

Reference set (5 entries):
- compound: "COC(=O)[C@@]1(Cc2ccccc2)[C@H]2c3cc(C(=O)N4CCCC4)n(Cc4cccc5ccccc45)c3C[C@H]2CN1C(=O)c1ccccc1"
  target-under-test: "Calmodulin-1 (Homo sapiens)"
  assigned-category: "yes (1)"
- compound: "COC(=O)[C@@]1(Cc2ccc(F)cc2)[C@H]2c3cc(C(=O)N4CCCC4)n(Cc4cc(C)n(C)n4)c3C[C@H]2CN1C(=O)c1ccccc1"
  target-under-test: "Calmodulin-1 (Homo sapiens)"
  assigned-category: "yes (1)"
- compound: "O=C1C2C=CC(C(O)c3ccc(F)cc3)N(Nc3ccccc3F)C2C(=O)N1c1ccccc1 (stereo unspecified)"
  target-under-test: "Calmodulin-1 (Homo sapiens)"
  assigned-category: "yes (1)"
- compound: "CN(C)CCCNC(=O)[C@@]1(c2ccc([N+](=O)[O-])cc2)CC(=O)N(C2CCCCC2)[C@@H]1c1ccc(CO)cc1"
  target-under-test: "Calmodulin-1 (Homo sapiens)"
  assigned-category: "yes (1)"
- compound: "CC(=O)NCCCC[C@@H]1NC(=O)[C@@H]2C[C@H](C(=O)NCCCCCCNC(=O)CS)[C@H](c3cccc(OCCO)c3)N2C1=O"
  target-under-test: "Calmodulin-1 (Homo sapiens)"
  assigned-category: "yes (1)"

Textbook exercise: given the entry `COC(=O)[C@@]1(Cc2ccc(F)cc2)[C@@H]2[C@@H](CC(=O)[C@H]2CC(=O)C(=O)N(C)C)CN1C(=O)c1ccccc1` , state whether its composite z-score is greater than or equal to -0.08. yes (1)

Textbook exercise: given the entry N#Cc1ccc(NN2C(C(O)c3c(F)cccc3Cl)C=CC3C(=O)N(c4ccccc4)C(=O)C32)cc1 (stereo unspecified) , state whether its composite z-score is greater than or equal to -0.08. yes (1)

Textbook exercise: given the entry `C=CCNC(=O)[C@H]1[C@@H]2C(=O)O[C@@H](c3ccccc3)[C@@H](c3ccccc3)N2[C@@H](c2ccccc2OCCO)[C@]12C(=O)Nc1ccc(C#CC3=CCCCC3)cc12` , state whether its composite z-score is greater than or equal to -0.08. no (0)

Textbook exercise: given the entry O=C1OCCC/C=C\[C@H]2OC34C=CCN(c5ccc6ccccc6c5)C(=O)[C@H]3N(CCCCCCO)C(=O)[C@@H]4C12 (stereo partly specified) , state whether its composite z-score is greater than or equal to -0.08. no (0)

Textbook exercise: given the entry `COc1ccc([Si](C)(C)[C@@H]2[C@@H](CCO)O[C@]3(C(=O)N(Cc4ccc(N5C(=O)COc6ccccc65)cc4)c4ccccc43)[C@H]2C)cc1` , state whether its composite z-score is greater than or equal to -0.08. yes (1)

Textbook exercise: given the entry `COCCOC(=O)N1C(=O)[C@@]2(c3cc(C#CC4(O)CCCCCC4)ccc31)[C@H](c1ccc(O)cc1)N1[C@H](c3ccccc3)[C@H](c3ccccc3)OC(=O)[C@H]1[C@@H]2C(=O)Nc1nc2ccccc2s1` , state whether its composite z-score is greater than or equal to -0.08. yes (1)

Textbook exercise: given the entry `Cc1ccc(S[C@]2(C(=O)NC3CC3)CC(=O)N(C3Cc4ccccc4C3)[C@@H]2c2ccc(CO)cc2)cc1` , state whether its composite z-score is greater than or equal to -0.08. yes (1)

Textbook exercise: given the entry `COCC(=C=CC[C@@H](O)c1ccccc1OCCO)C[C@@H](O)c1cc(Cl)cc(Cl)c1O` , state whether its composite z-score is greater than or equal to -0.08. no (0)

Textbook exercise: given the entry `C=CCN1C(=O)[C@@]2(O[C@@H](CCO)[C@H]([Si](C)(C)c3ccc(OC)cc3)[C@H]2C)c2cc(NC(=O)c3ccc(OC)cc3)ccc21` , state whether its composite z-score is greater than or equal to -0.08. yes (1)

Textbook exercise: given the entry CC(=O)n1cc(C(O)C2C=CC3C(=O)N(C)C(=O)C3N2Nc2ccccc2)c2ccccc21 (stereo unspecified) , state whether its composite z-score is greater than or equal to -0.08. no (0)

Textbook exercise: given the entry `C=CCN1C(=O)[C@]2(O[C@H](CCO)[C@@H]([Si](C)(C)c3ccc(OC)cc3)[C@@H]2C)c2cc(N3CCCCC3=O)ccc21` , state whether its composite z-score is greater than or equal to -0.08. yes (1)

Textbook exercise: given the entry `CCCC#C[Si](O[C@H](CC)c1cn([C@H](CO)Cc2ccccc2)nn1)(C(C)C)C(C)C` , state whether its composite z-score is greater than or equal to -0.08. yes (1)

Textbook exercise: given the entry `COc1ccc([Si](C)(C)[C@H]2[C@H](CCn3cc([C@H](O)c4ccccc4)nn3)O[C@@]3(C(=O)N(Cc4cccc(N5CCOC5=O)c4)c4ccccc43)[C@@H]2C)cc1` , state whether its composite z-score is greater than or equal to -0.08. no (0)

Textbook exercise: given the entry `C=C(CCCC)C(=O)CC[C@@H](OC(=O)c1cccnc1)c1ccc(CO)o1` , state whether its composite z-score is greater than or equal to -0.08. no (0)

Textbook exercise: given the entry `C=CCNC(=O)[C@@H]1[C@H]2C(=O)O[C@H](c3ccccc3)[C@H](c3ccccc3)N2[C@H](c2ccc(OCCO)cc2)[C@@]12C(=O)Nc1ccc(C#CCCO)cc12` , state whether its composite z-score is greater than or equal to -0.08. yes (1)

Textbook exercise: given the entry `COCCOC(=O)N1C(=O)[C@@]2(c3cc(C#CC4=CCCCC4)ccc31)[C@H](C(=O)N1CCc3cc(OC)c(OC)cc3C1)[C@H]1C(=O)O[C@H](c3ccccc3)[C@H](c3ccccc3)N1[C@@H]2c1ccc(OCCO)cc1` , state whether its composite z-score is greater than or equal to -0.08. yes (1)

Textbook exercise: given the entry `C=CCOC(=O)[C@H]1[C@@H]2C(=O)O[C@@H](c3ccccc3)[C@@H](c3ccccc3)N2[C@@H](c2ccc(OCCOC(=O)[C@H]3C[C@H]4C(=O)N[C@@H](CC(C)C)C(=O)N4[C@H]3c3ccc(O)cc3)cc2)[C@]12C(=O)Nc1ccc(I)cc12` , state whether its composite z-score is greater than or equal to -0.08. no (0)

Textbook exercise: given the entry `COc1ccc([C@H]2OC[C@@H]3CC4(CC=CC4)C(=O)N32)cc1` , state whether its composite z-score is greater than or equal to -0.08. no (0)

Textbook exercise: given the entry `C[C@@H]1ON(c2cccc(C(=O)OC(C)(C)C)c2)[C@H](c2ccc(Br)cc2)[C@H]1C(=O)N1C(=O)OC[C@H]1Cc1ccccc1` , state whether its composite z-score is greater than or equal to -0.08. no (0)

Textbook exercise: given the entry `O=C1O[C@H](c2ccccc2)[C@H](c2ccccc2)N2[C@H]1[C@@H](C(=O)Nc1nc3ccccc3s1)[C@]1(C(=O)Nc3ccc(C#CCCO)cc31)[C@H]2c1ccc(OCCO)cc1` , state whether its composite z-score is greater than or equal to -0.08. yes (1)

Origin of the recorded values: PubChem BioAssay
